The measured values listed here are drawn from paper PMC7819943.

Below, each entry is listed alongside its reported binding signal.
# Study system: OsWOX13 (Oryza sativa, UniProt Q5QMM3 1-267)
# Sequence: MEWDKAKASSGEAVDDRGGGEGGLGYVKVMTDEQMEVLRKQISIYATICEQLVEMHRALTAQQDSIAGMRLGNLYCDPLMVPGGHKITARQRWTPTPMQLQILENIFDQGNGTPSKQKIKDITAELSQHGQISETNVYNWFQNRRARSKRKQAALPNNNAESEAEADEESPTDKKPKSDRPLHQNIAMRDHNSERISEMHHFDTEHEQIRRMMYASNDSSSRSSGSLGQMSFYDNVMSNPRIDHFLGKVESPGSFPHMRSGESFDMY
# Run description: protein-binding microarray (RPBM); PBS, 2% BSA, 51.3 ng/ul salmon testes DNA, 50 uM zinc acetate, 200 nM TF, 25 C, 1 h; high values mean tight binding
# Protocol conditions: protein: recombinant; tags: N-terminal polyhistidine and DsRed monomer fusion (pET32a); label: CyDye5-dUTP incorporated in the synthesized complementary strand; 3' TTTTT single-stranded linker to array surface; dsDNA, one strand shown
The full ranking holds about 35,000 sequences; the median of “fluorescence intensity (a.u.)” is about 10,000, and the highest 2% start at about 52,000. Shown is part of a subset that was picked to be rich in the highest values.
Recorded endpoint: binding signal

[[record]]
item_sequence = "TTGGCGATTGATTGGGGAAAGGAAACTTTGCTAGGTCAATCGGAGTCACCTAGTGCAG"
experimental_result = "53500 fluorescence intensity (a.u.)"

[[record]]
item_sequence = "GTGATGAGTGATGACCCGGAGAATGAGAGAGGCGACTGTGCGGAGTCACCTAGTGCAG"
experimental_result = "3800 fluorescence intensity (a.u.)"

[[record]]
item_sequence = "CATGATGATAGTGATAGCAACTCAAGCAATACTAACGCACCGGAGTCACCTAGTGCAG"
experimental_result = "14700 fluorescence intensity (a.u.)"

[[record]]
item_sequence = "GGGAGAGGTGATGAGTGATTGGAGTAGAGGGGAGATGAGGCGGAGTCACCTAGTGCAG"
experimental_result = "12600 fluorescence intensity (a.u.)"

[[record]]
item_sequence = "GTGTGATTTGCTAATTGGGTTTGTTATGAAGCTGGTTATCCGGAGTCACCTAGTGCAG"
experimental_result = "54000 fluorescence intensity (a.u.)"

